- target-or-system: T1, YU-2 gp140 (HIV-1 YU2, UniProt P35961 32-670)
- T1 construct: domain: gp140; also called YU2 gp140 trimer
- test-name: SPR, gp140 on chip, IgG injected
Lab note: cut-off is 40000 M⁻¹ s⁻¹. Strictly less in kon is true. Exactly 40000 M⁻¹ s⁻¹ or more is false.

Reference set (4 entries):
>>> label_value("12A21 (antibody, V domains shown, also called 12A21HC; 12a21kc) VH: SQHLVQSGTQVKKPGASVRVSCQASGYTFTNYILHWWRQAPGQGLEWMGLIKPVFGAVNYARQFQGRIQLTRDIYREIAFLDLSGLRSDDTAVYYCARDESGDDLKWHLHPWGQGTQVIVSP VL: DIQMTQSPSSLSASVGDRVTINCQAGQGIGSSLNWYQKKPGRAPKLLVHGASNLQRGVPSRFSGSGFHTTFTLTISSLQPDDVATYFCAVFQWFGPGTKVDIKR")
"false"
>>> label_value("8ANC131 (antibody, V domains shown, also called 8ANC131HC; 8ANC131KC) VH: QGQLVQSGGGLKKPGTSVTISCLASEYTFNEFVIHWIRQAPGQGPLWLGLIKRSGRLMTAYNFQDRLRLRRDRSTGTVFMELRGLRPDDTAVYYCARDGLGEVAPDYRYGIDVWGQGSTVIVTA VL: EIVLTQSPATLSLSPGERATLSCRASQGLNFVVWYQQKRGQAPRLLIHAPSGRAPGVPDRFSARGSGTEFSLVISSVEPDDFAIYYCQEYSSTPYNFGPGTRVDRKR")
"false"
>>> label_value("3BNC156 (antibody, V domains shown, also called 3BNC156HC; 3bnc156kc) VH: QVQLVQSGAALKKPGASLRISCQTYGYKFTDHLIYWWRQAPGQGLEWIGWIKPETGQPSYSYRFQGRVSLTRDTFEEIVFMDLRGLRSDDTAIYFCARRHSDYCDFDVWGGGSQVIVSS VL: DIQMTQSPSSLSASVGDTVTITCQTNKGYLNWYQQKRGRAPKLLMYDGSKLVTGVPSRLSGRRWGTQYNLTIGSLQPEDIATYYCQVYEFFGPGTRLDLKR")
"true"
>>> label_value("NIH45-46 (antibody, V domains shown) VH: QVRLSQSGGQMKKPGESMRLSCRASGYEFLNCPINWIRLAPGRRPEWMGWLKPRGGAVNYARKFQGRVTMTRDVYSDTAFLELRSLTSDDTAVYFCTRGKYCTARDYYNWDFEH VL: EIVLTQSPATLSLSPGETAIISCRTSQSGSLAWYQQRPGQAPRLVIYSGSTRAAGIPDRFSGSRWGADYNLSISNLESGDFGVYYCQQYEFFG")
"false"

Input: Quick check: kon of 3BNC66 (antibody, V domains shown, also called 3BNC66HC; 3bnc66kc) VH: QVQLVQSGAALKKPGASLRISCQTYGYKFTDHLIYWWRQAPGQGLEWIGWIKPETGQPSYSYRFQGRVSLTRDTFEEIAFMDLRGLRSDDTAIYFCARRHTDYCVFDVWGSGSQIIVSS VL: DIQMTQSPSSLSASVGDTVTITCQTNKGYLNWYQQRRGRAPKLLMYDGSKLVTGVPSRLSGRRWGTQYNLTIGSLQPEDIATYYCQVYEFFGPGTRLDLKR under 40000 M⁻¹ s⁻¹?
Output: true
